Reported values of AC35 for individual entries
# System: D54 LucT luciferase reporter counterscreen, luminescence, 24 h
# method-summary: reporter signal increase, D54 LucT cells – cell-based, luminescence, cherry pick, counter-screen for N-linked glycosylation inhibitor project, dose response (AID 624404)
Results filed as inconclusive are left out.

Return reported AC35. Input compound: NC1(C(=O)O)CSSC1 3050 nM

Return reported AC35. Input compound: Cc1cc(=O)n2c3c(c4c(cc13)c(CN(C)C)cc(=O)n4C)OC2 31.5 nM

Return reported AC35. Input compound: O=c1[nH]c(=O)n([C@H]2C[C@H](O)[C@@H](CO)O2)cc1I 4150 nM

Return reported AC35. Input compound: CCn1c2ccccc2c2cc(Nc3cc(C)nc4ncnn34)ccc21 420 nM

Return reported AC35. Input compound: Cc1ccc(S(=O)(=O)c2cc3c(=O)n4ccccc4nc3n(CCc3ccccc3)c2=N)cc1 75.9 nM

Return reported AC35. Input compound: O=C(Nc1ccccc1N1CCOCC1)c1ccc2nc[nH]c2c1 852 nM

Return reported AC35. Input compound: COc1ccc(NC(=O)C2Cc3c(-c4cccc(C(C)=O)c4)ccnc3O2)cc1 (configuration not stated) 90.9 nM

Return reported AC35. Input compound: CC1c2cc3c(cc2CCN1C(=O)c1ccc(Br)cc1)OCCCO3 (configuration not stated) 172 nM

###

Reported values of AC35 for individual entries
# Tested on: D54 LucT luciferase reporter counterscreen, luminescence, 24 h
# method-summary: reporter signal increase, D54 LucT cells – cell-based, luminescence, cherry pick, counter-screen for N-linked glycosylation inhibitor project, dose response (AID 624404)
Records with an inconclusive call do not appear.

Field: example entries. Status: answers known.
CCn1c2ccccc2c2cc(NC(=O)COC(=O)c3ccccc3F)ccc21	4.22 µM
C[C@@]12C(=O)Nc3cc(F)c(F)cc3C(=O)N1[C@H]1c3ccccc3OC[C@@H]1[C@@H]2c1ccccc1	0.746 µM
CC1CN(c2nc(-c3ccccc3)nnc2-c2ccccc2)CC(C)O1 (stereo unspecified)	1.39 µM

Return reported AC35. Input molecule: COc1ccc(Cl)cc1/C=C/c1ccc2cccc(O)c2n1 0.0221 µM

Return reported AC35. Input molecule: COc1ccc(Sc2nnc(Cc3ccccc3)c3ccccc23)cc1 4.37 µM

Return reported AC35. Input molecule: COc1ccc2c(c1)OC[C@H]1[C@H]2N2C(=O)c3cc(Cl)ccc3NC(=O)[C@@]2(C)[C@H]1c1ccccc1 0.996 µM

Return reported AC35. Input molecule: CCCCCCn1c(=O)n2n(c1=O)[C@@H]1CN(S(=O)(=O)c3ccc(C)cc3)C[C@]1(O)[C@@H](OC(=O)NCc1ccccc1)C2 0.717 µM

Return reported AC35. Input molecule: COc1ccc(S(=O)(=O)NCc2ccccn2)cc1NC(=O)c1ccccc1 0.834 µM

Return reported AC35. Input molecule: Cc1nn(-c2ccccc2)c2c1CC(=O)Nc1ccccc1-2 3.16 µM

Return reported AC35. Input molecule: COc1cc(CN2CCc3ccccc3C2)ccc1O 2 µM

Return reported AC35. Input molecule: COc1cc(F)ccc1-c1csc(C(NC(C)=O)c2ccc(F)c(F)c2)n1 (stereo unspecified) 0.27 µM

Return reported AC35. Input molecule: O=C(CNC(=O)c1ccc(Br)o1)Nc1cccc(-c2cnc3ccccc3n2)c1 3.53 µM

Return reported AC35. Input molecule: COC(=O)c1cc(=O)n(-c2ccc(F)cc2)c(=Nc2ccc(F)cc2)s1 0.0251 µM

Return reported AC35. Input molecule: CC1(C)Cc2nc3sc4c(SCC(=O)NCc5ccccc5)ncnc4c3cc2CO1 0.0157 µM

Return reported AC35. Input molecule: COc1ccc(Nc2nc(N)c(C(=O)c3ccc(OC)cc3)s2)cc1 0.148 µM

Return reported AC35. Input molecule: CCOC(=O)c1[nH]c(C)c(C(=O)c2ccc(C)cc2)c1C 1.1 µM

Return reported AC35. Input molecule: O=C(NCc1ccccc1Br)c1cccc2c1C(=O)c1ccc(-c3ccc(OC(F)(F)F)cc3)cc1S2(=O)=O 0.408 µM

Return reported AC35. Input molecule: CC1(C(=O)NCc2ccccc2)Cc2c(-c3cccc(C(N)=O)c3)ccnc2O1 (stereo unspecified) 0.651 µM

Reference source for all entries: PubChem BioAssay AID624404
